# target.under.test: recombinant human DAO (diamine oxidase) (Homo sapiens)
# protocol.text: Inhibition of human recombinant DAO
pIC50: −log10 of the molar value.
readout.type: pIC50

// known answers, use as guide
Please list pIC50 recorded for the compound NCC(=CF)COc1ccccc1 (mixture of isomers) 5.80

Report pIC50, nothing else, for this compound: Cl.NC/C(=C\F)[C@H]1Cc2ccccc2O1 < 4.52

# return recorded pIC50 for input NC/C(=C\F)COc1ccccc1 < 4.52

Recall and state the measured pIC50 for NC/C(=C/F)CCc1ccc(F)cc1 . < 4.52

Others:
Please list pIC50 recorded for the compound NC/C(=C/F)[C@H]1Cc2ccccc2O1 < 4.52

Using the record for Cl.NCC(=CF)C1Cc2ccccc2O1 (mixture of isomers) , state its measured pIC50. < 4.52

Write down pIC50 measured for item NCC(=CF)COc1ccc(F)cc1 (mixture of isomers) 6.11

Hello, please tell me recorded pIC50 for this one: Cc1ccccc1OC/C(=C/F)CN < 4.52

Supply reported pIC50 belonging to this compound: Cl.NC/C(=C\F)[C@@H]1Cc2ccccc2O1 < 4.52

----------
# target.under.test: UniProt Q8BW75
# Sequence (Q8BW75 whole entry): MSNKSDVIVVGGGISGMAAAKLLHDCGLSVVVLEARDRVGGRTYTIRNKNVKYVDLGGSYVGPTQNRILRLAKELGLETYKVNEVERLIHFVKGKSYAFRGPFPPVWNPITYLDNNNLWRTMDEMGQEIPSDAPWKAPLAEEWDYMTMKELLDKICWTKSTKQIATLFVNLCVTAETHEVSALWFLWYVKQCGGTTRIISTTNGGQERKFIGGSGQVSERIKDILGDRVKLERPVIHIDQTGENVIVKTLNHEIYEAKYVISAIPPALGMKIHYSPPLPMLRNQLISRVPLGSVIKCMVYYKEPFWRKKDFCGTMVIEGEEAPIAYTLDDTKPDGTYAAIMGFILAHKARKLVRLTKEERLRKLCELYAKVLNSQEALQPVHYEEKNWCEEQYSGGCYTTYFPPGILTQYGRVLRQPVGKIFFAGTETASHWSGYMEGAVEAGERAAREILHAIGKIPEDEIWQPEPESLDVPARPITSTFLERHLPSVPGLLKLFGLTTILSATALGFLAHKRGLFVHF
readout.type: pIC50
Remember the convention: pIC50 equals -log10 of concentration in molar.

# assay system UniProt Q8BW75: give pIC50 of Cl.NC/C(=C\F)[C@H]1Cc2ccccc2O1 9.40

----------
# protocol.text: Stability in human microsomes measured after 1 hr
# Assay type: ADME, Microsome
# conditions.used: read-out: Stability
readout.type: remaining at 1 h (%)
Report as a plain number; the unit % is understood.

Name the recorded remaining at 1 h of the compound listed here: Cl.NC/C(=C\F)[C@H]1Cc2ccccc2O1 84

----------
# protocol.text: Stability in human hepatocytes assessed as parent compound remaining measured after 1 hr
# Assay type: ADME, cell-based, Hepatocyte
# conditions.used: read-out: Stability
readout.type: remaining at 1 h

Write down remaining at 1 h measured for item Cl.NC/C(=C\F)[C@H]1Cc2ccccc2O1 > 95%

----------
# target.under.test: Cytochrome P450 2C9 (Homo sapiens)
# Sequence (P11712 whole entry): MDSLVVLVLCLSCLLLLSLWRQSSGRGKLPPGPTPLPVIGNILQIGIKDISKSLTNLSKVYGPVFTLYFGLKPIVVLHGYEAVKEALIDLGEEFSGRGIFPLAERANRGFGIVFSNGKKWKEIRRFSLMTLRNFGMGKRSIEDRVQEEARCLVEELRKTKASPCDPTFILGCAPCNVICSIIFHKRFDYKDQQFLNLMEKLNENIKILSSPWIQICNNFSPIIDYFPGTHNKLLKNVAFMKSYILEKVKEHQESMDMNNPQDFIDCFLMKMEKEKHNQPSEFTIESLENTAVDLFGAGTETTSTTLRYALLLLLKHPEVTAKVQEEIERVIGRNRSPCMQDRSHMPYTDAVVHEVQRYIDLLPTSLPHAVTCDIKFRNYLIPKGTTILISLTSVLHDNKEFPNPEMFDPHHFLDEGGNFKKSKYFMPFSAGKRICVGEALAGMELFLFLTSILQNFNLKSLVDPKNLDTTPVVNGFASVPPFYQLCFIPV
pIC50: −log10 of the molar value.
readout.type: pIC50

Find the measured pIC50 of Cl.NC/C(=C\F)[C@H]1Cc2ccccc2O1 and report it. < 5.00

----------
# protocol.text: Plasma protein binding in human
# Assay type: ADME, cell-free
# conditions.used: read-out: PPB (converted)
readout.type: fraction unbound
Reply: number alone, nothing else.

Give reported fraction unbound value for Cl.NC/C(=C\F)[C@H]1Cc2ccccc2O1 0.24

----------
# protocol.text: Plasma protein binding in dog
# Assay type: ADME, cell-free, Canis lupus familiaris
# conditions.used: read-out: PPB (converted)
readout.type: fraction unbound

Item Cl.NC/C(=C\F)[C@H]1Cc2ccccc2O1 : provide fraction unbound 0.42
